Tested on: Sweetpotato Whitefly-Crawler (Bemisia Tabaci)
assayProtocol: Insecticidal test for sweetpotato whitefly-crawler in foliar spray assay (col. BEMITA)
Assay type: in vivo
assayConditions: Bemisia tabaci, sweetpotato whitefly-crawler, read-out: BEMITA 200 ppm (Corrected % Control, rating)

- molecule: "CSC(C)CC(=O)N(C)c1sc(-c2cccnc2)nc1Cl (stereo not drawn)"
  pest or weed control at 200 ppm: "80 to 100%"
- molecule: "CCN(C(=O)CCSC)c1sc(-c2cncc(F)c2)nc1Cl"
  pest or weed control at 200 ppm: "80 to 100%"
- molecule: "Cc1nc(-c2cccnc2)sc1NC(=O)OC(C)(C)C"
  pest or weed control at 200 ppm: "80 to 100%"
- molecule: "CC(=O)N1CCCC(C(=O)N(C)c2sc(-c3cccnc3)nc2Cl)C1 (stereo not drawn)"
  pest or weed control at 200 ppm: "< 80%"
- molecule: "CSCC(C)C(=O)N(C)c1sc(-c2cncc(F)c2)nc1Br (stereo not drawn)"
  pest or weed control at 200 ppm: "80 to 100%"
- molecule: "CCSCC(=O)N(C)c1sc(-c2cccnc2)nc1C"
  pest or weed control at 200 ppm: "80 to 100%"
- molecule: "Cc1nc(-c2ccc(F)nc2)sc1N(C(=O)C(C)C)C(=O)C(C)C"
  pest or weed control at 200 ppm: "80 to 100%"
- molecule: "CSC(C)C(=O)N(C)c1sc(-c2cccnc2)nc1Cl (stereo not drawn)"
  pest or weed control at 200 ppm: "< 80%"
- molecule: "CCc1cc(C(=O)N(C)c2sc(-c3cccnc3)nc2Cl)no1"
  pest or weed control at 200 ppm: "80 to 100%"
- molecule: "CSCC(C)C(=O)N(C(=O)C(C)CSC)c1sc(-c2cncc(F)c2)nc1C (stereo not drawn)"
  pest or weed control at 200 ppm: "80 to 100%"
- molecule: "CCSCCC(=O)N(CC)c1sc(-c2cccnc2)nc1C"
  pest or weed control at 200 ppm: "< 80%"
- molecule: "CC(C[S+](C)[O-])C(=O)N(C)c1cnc(-c2cncc(F)c2)s1 (stereo not drawn)"
  pest or weed control at 200 ppm: "80 to 100%"
- molecule: "CSCC(C)C(=O)Nc1sc(-c2cncc(C#N)c2)nc1C (stereo not drawn)"
  pest or weed control at 200 ppm: "80 to 100%"
- molecule: "CCN(C(=O)C(C)C)c1sc(-c2cncc(F)c2)nc1C"
  pest or weed control at 200 ppm: "80 to 100%"
- molecule: "CSCC(C)C(=O)Nc1sc(-c2cccnc2)nc1C(F)(F)F (stereo not drawn)"
  pest or weed control at 200 ppm: "< 80%"
- molecule: "CSCCC(=O)N(C)c1sc(-c2cccnc2)nc1C(C)C"
  pest or weed control at 200 ppm: "80 to 100%"
- molecule: "CN(C(=O)OC(C)(C)C)c1sc(-c2cccnc2)nc1Cl"
  pest or weed control at 200 ppm: "80 to 100%"
- molecule: "CCN(C(=O)C(C)C)c1sc(-c2cccnc2)nc1-c1ccccc1"
  pest or weed control at 200 ppm: "< 80%"
- molecule: "CSCCC(=O)N(C)c1cnc(-c2ccc(Cl)nc2)s1"
  pest or weed control at 200 ppm: "< 80%"
- molecule: "CSCCC(=O)Nc1sc(-c2cccnc2)nc1C(F)(F)F"
  pest or weed control at 200 ppm: "< 80%"
- molecule: "CSCCC(=O)N(C)c1sc(-c2cncnc2)nc1C"
  pest or weed control at 200 ppm: "80 to 100%"
- molecule: "CSCC(C)C(=O)N(C)c1cnc(-c2cccnc2)s1 (stereo not drawn)"
  pest or weed control at 200 ppm: "80 to 100%"
- molecule: "Cc1nc(-c2cccnc2)sc1NC(=O)CC1CC1"
  pest or weed control at 200 ppm: "80 to 100%"
- molecule: "CCN(C(=O)C(C)CSC)c1sc(-c2cccnc2)nc1-c1ccccc1 (stereo not drawn)"
  pest or weed control at 200 ppm: "< 80%"
- molecule: "CN(C(=O)C1=CC(=O)CC(C)(C)O1)c1sc(-c2cccnc2)nc1Cl"
  pest or weed control at 200 ppm: "< 80%"
- molecule: "CC(C)(C)OC(=O)N(C(=O)OC(C)(C)C)c1sc(-c2cncc(F)c2)nc1Br"
  pest or weed control at 200 ppm: "< 80%"
- molecule: "CSCC(C)C(=O)Nc1sc(-c2cncc(F)c2)nc1C (stereo not drawn)"
  pest or weed control at 200 ppm: "80 to 100%"
- molecule: "CNC(C)C(=O)N(C)c1sc(-c2cccnc2)nc1C (stereo not drawn)"
  pest or weed control at 200 ppm: "80 to 100%"
- molecule: "Cc1nc(-c2cccnc2)sc1NC(=O)[C@H](C)NC(=O)OC(C)(C)C"
  pest or weed control at 200 ppm: "< 80%"
- molecule: "CSCc1ccc(C(=O)Nc2sc(-c3cccnc3)nc2C)o1"
  pest or weed control at 200 ppm: "80 to 100%"
- molecule: "CSC(C)CC(=O)Nc1sc(-c2cncc(F)c2)nc1C (stereo not drawn)"
  pest or weed control at 200 ppm: "80 to 100%"
- molecule: "CCc1nc(-c2cccnc2)sc1N(C)C(=O)C(C)CSC (stereo not drawn)"
  pest or weed control at 200 ppm: "80 to 100%"
- molecule: "CC(CS(C)(=O)=O)C(=O)N(C)c1sc(-c2cncc(F)c2)nc1Cl (stereo not drawn)"
  pest or weed control at 200 ppm: "80 to 100%"
- molecule: "Cc1nc(-c2cccnc2)sc1N(C)C(=O)CNC(=O)OC(C)(C)C"
  pest or weed control at 200 ppm: "< 80%"
- molecule: "CCSCC(=O)N(C)c1sc(-c2cccnc2)nc1Cl"
  pest or weed control at 200 ppm: "80 to 100%"
- molecule: "C=Cc1nc(-c2cncc(F)c2)sc1N(C)C(=O)OC(C)(C)C"
  pest or weed control at 200 ppm: "80 to 100%"
- molecule: "CN(C(=O)OC(C)(C)C)c1sc(-c2cncc(F)c2)nc1F"
  pest or weed control at 200 ppm: "80 to 100%"
- molecule: "Cc1nc(-c2cccnc2)sc1N(C)C(=O)C1CCSC1 (stereo not drawn)"
  pest or weed control at 200 ppm: "80 to 100%"
- molecule: "CC(C[S+](C)[O-])C(=O)Nc1sc(-c2cncc(F)c2)nc1Br (stereo not drawn)"
  pest or weed control at 200 ppm: "< 80%"
